targetDesc: human P2X7 receptor (Homo sapiens, UniProt Q99572, R270H/Y155H)
testDescription: Evaluation of a human P2X7 receptor inhibitory activity (Yo-Pro uptake, BzATP stimulation, FLIPR TETRA)
Assay type: cell-based
conditionSet: antagonistic activity for the human P2X7 receptor; 1321N1 cells expressing human P2X7, BzATP-stimulated Yo-Pro uptake; read-out: IC50
endpointLabel: IC50

Q) Fill blank: measured IC50 of the compound COC1CN(Cc2ccc(F)c(F)c2)C(Nc2cc(S(C)(=O)=O)c(C)cc2C)=NC1=O (stereo not shown) is ____.
A) 10 to 100 nM

Q) Consider the compound shown here: COc1ccc(NC2=NC(=O)CC(C)N2Cc2cc(F)c(F)c(F)c2)c(C)c1 (stereo not shown) What is its recorded IC50?
A) < 10 nM

Q) Sample Cc1cc(F)c(-c2cccn(C)c2=O)cc1Nc1nc(=O)c(F)cn1Cc1cc(F)c(F)c(F)c1 — what was its IC50?
A) < 10 nM

Q) Look up IC50 for this compound: COc1cn(Cc2cc(F)c(F)c(F)c2)c(Cc2cccc3[nH]c(=O)ccc23)nc1=O
A) 100 to 500 nM

Q) So what does the record say about IC50 for COc1cn(Cc2ccc(F)c(Cl)c2)c(Nc2c(C)cc3c(c2C)COC3)nc1=O ?
A) < 10 nM

Q) I would be grateful if you could share the reported IC50 for COc1cc(C)c(Nc2nc(=O)cc(C)n2Cc2cc(F)c(F)c(F)c2)cc1OC .
A) < 10 nM

Q) Looking for the measured IC50 of COc1cn(Cc2ccccc2)c(Nc2ccc(C)cc2F)nc1=O , can you help?
A) 100 to 500 nM

----------
targetDesc: human P2X7 receptor (Homo sapiens, UniProt Q99572, R270H/Y155H)
testDescription: Evaluation of a human P2X7 receptor inhibitory activity (Yo-Pro uptake, BzATP stimulation, FLIPR TETRA)
Format: cell-based
conditionSet: 1321N1 cells expressing human P2X7 receptor; BzATP stimulation, Yo-Pro uptake; read-out: IC50 (antagonistic activity for the human P2X7 receptor)
Field: IC50. Provide a value for each of the compounds that follow.
Your answer is read as nM, so omit the unit and give the number.

Q) Query: IC50; subject: COc1cn(Cc2ccc(F)c(Cl)c2)c(Nc2cc3sc(C)nc3cc2C)cc1=O
A) 49

Q) Which IC50 reading was recorded for the compound COc1cn(Cc2cc(F)cc(F)c2)c(NCc2cccc(Cl)c2C)nc1=O ?
A) 110

Q) May I ask what IC50 has been recorded for COc1cn(Cc2ccc(F)c(Cl)c2)c(Oc2cc(C)c(C)cc2C)nc1=O ?
A) 160

Data origin, for the record: patent US11124486B2
